Test system: AMPA receptor
experiment-description: Glutamate (100 μM)-evoked calcium influx in DIV9 dissociated rat forebrain neurons
Type: cell-based
run-conditions: Glutamate (100 μM)-evoked Ca2+ influx
Would you mind telling me the reported Emax (%) of each entry?
Response body: numeric value in %, unit text excluded.

// Emax (%) value for CC(C)S(=O)(=O)NC[C@H](C)c1ccc(-c2ccc(CCN3CCCC3=O)cc2)cc1 [HJC0173] : 127.1

// Emax (%) value for CC(C)S(=O)(=O)NC[C@H](C)c1ccc(-c2ccnc(C(=O)N3CCCC3)c2)cc1 [HJC-1-22] : 170.0

// Emax (%) value for CC(C)S(=O)(=O)NC[C@H](C)c1ccc(-n2ccc3cc(C(=O)N4CCCC4)ccc32)cc1 [HJC0210] : 157.5

// Emax (%) value for CC(C)S(=O)(=O)NC[C@H](C)c1ccc(-n2ccc3ncccc32)cc1 [HJC0229] : 168.9
